- tested.on: dK50dM51 L49A (UniProt P09012 10-89, L49A;del50-51)
- assay.summary: fluorescence polarization
readout.type: Kd (µM)
Enter your answer as a number in µM; do not include the unit.

Ask: For the binder shown here, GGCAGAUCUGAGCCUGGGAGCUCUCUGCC (structured_RNA) [TAR RNA] , give the reported Kd.
Result: 91.6
